Target: Human recombinant full length HDAC6 (Homo sapiens (Human))
Sequence (Q9UBN7 whole entry): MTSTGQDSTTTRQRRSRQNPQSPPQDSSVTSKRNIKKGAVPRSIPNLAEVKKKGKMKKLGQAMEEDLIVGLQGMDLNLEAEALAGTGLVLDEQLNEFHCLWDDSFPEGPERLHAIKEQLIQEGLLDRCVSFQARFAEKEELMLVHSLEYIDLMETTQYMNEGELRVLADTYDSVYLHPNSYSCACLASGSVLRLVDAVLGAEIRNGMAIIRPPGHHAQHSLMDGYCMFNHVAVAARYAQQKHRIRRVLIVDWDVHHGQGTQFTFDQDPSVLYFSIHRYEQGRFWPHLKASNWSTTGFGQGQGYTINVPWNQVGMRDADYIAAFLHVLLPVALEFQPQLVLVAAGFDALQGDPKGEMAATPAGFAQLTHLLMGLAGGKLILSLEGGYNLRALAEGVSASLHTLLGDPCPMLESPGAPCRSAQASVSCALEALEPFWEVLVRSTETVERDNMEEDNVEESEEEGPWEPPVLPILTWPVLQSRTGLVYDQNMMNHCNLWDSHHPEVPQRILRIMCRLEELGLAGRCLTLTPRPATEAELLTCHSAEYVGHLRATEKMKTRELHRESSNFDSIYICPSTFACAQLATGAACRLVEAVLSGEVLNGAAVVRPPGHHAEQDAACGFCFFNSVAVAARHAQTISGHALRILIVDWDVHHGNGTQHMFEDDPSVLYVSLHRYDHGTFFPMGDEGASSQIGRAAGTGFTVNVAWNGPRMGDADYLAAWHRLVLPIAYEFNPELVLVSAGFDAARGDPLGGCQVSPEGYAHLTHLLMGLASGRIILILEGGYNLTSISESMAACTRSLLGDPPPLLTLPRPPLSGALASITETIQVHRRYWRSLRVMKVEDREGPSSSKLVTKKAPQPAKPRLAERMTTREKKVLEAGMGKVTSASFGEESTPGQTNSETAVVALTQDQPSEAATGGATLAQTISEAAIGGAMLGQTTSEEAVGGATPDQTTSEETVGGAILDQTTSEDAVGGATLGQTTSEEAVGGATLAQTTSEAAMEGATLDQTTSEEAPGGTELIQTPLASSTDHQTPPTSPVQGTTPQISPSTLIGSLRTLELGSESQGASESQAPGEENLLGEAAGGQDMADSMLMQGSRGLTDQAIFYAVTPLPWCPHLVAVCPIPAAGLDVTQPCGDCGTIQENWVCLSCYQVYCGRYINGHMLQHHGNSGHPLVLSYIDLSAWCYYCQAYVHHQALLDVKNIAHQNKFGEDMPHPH
Assay: Test 4: HDAC6 assay
Type: biochemical
Details: Test 4; substrate 5 μM acetyl-Gly-Ala-Lys(acetyl)-AMC
Observation Type: pIC50
Conceptually, pIC50 converts a concentration in mol/L into minus its log10.

The cases that follow already have their pIC50 on record.
{"Molecule": "C[C@H](CN1CCCCC1)NC(=O)c1ccc(-c2noc(C(F)(F)F)n2)cc1", "Observation Type": "pIC50", "Observed Value": 5.12}
{"Molecule": "C[C@H](CN(C)C)NC(=O)c1ccc(-c2noc(C(F)(F)F)n2)cc1F", "Observation Type": "pIC50", "Observed Value": 5.33}
{"Molecule": "O=C(NC1CCCCC1O)c1ccc(-c2noc(C(F)(F)F)n2)cc1 (stereo not drawn)", "Observation Type": "pIC50", "Observed Value": 5.15}
{"Molecule": "O=S(=O)(NCCCO)c1ccc(-c2noc(C(F)(F)F)n2)cc1", "Observation Type": "pIC50", "Observed Value": 5.51}

Please look at the following molecule next.
Fill in the recorded pIC50 for this molecule, with Human recombinant full length HDAC6 (Homo sapiens (Human)) as test system: CCC(CO)NC(=O)c1ccc(-c2noc(C(F)(F)F)n2)cc1 (stereo not drawn) 5.17

###

Listing of recorded pIC50 by entry.
Target: Human recombinant HDAC4 (Homo sapiens (Human))
Experiment: Test 1: HDAC4 assay (fluorogenic substrate, 10 μM acetyl-Gly-Ala-Lys(trifluoroacetyl)-AMC)
Format: biochemical
Settings: Test 1 (values indicated by an asterisk)
Conceptually, pIC50 converts a concentration in mol/L into minus its log10.

The cases that follow already have their pIC50 on record.
{"Molecule": "O=C(NC1CC1)c1ccc(-c2noc(C(F)(F)F)n2)cc1 [Example 19]", "System Under Test": "Human recombinant HDAC4 (Homo sapiens (Human))", "pIC50": 6.92}
{"Molecule": "O=S(=O)(Nc1cccnc1)c1ccc(-c2noc(C(F)(F)F)n2)cc1 [Example 100]", "System Under Test": "Human recombinant HDAC4 (Homo sapiens (Human))", "pIC50": 7.15}
{"Molecule": "CN(C)c1ccc(NC(=O)c2ccc(-c3noc(C(F)(F)F)n3)cc2)cc1 [Example 41]", "System Under Test": "Human recombinant HDAC4 (Homo sapiens (Human))", "pIC50": 5.82}
{"Molecule": "CCN(CC)C[C@H](C)NC(=O)c1ccc(-c2noc(C(F)(F)F)n2)cc1 [Example 133]", "System Under Test": "Human recombinant HDAC4 (Homo sapiens (Human))", "pIC50": 7.32}
{"Molecule": "O=S(=O)(Nc1cccc(F)c1)c1ccc(-c2noc(C(F)(F)F)n2)cc1 [Example 106]", "System Under Test": "Human recombinant HDAC4 (Homo sapiens (Human))", "pIC50": 6.70}

Please look at the following molecule next.
Fill in the recorded pIC50 for this molecule, with Human recombinant HDAC4 (Homo sapiens (Human)) as test system: Cc1cc(NC(=O)c2ccc(-c3noc(C(F)(F)F)n3)cc2)ccn1 [Example 70] 7.05

###

Target: Human recombinant HDAC4 (Homo sapiens (Human), UniProt P56524)
Sequence (P56524 2-1084): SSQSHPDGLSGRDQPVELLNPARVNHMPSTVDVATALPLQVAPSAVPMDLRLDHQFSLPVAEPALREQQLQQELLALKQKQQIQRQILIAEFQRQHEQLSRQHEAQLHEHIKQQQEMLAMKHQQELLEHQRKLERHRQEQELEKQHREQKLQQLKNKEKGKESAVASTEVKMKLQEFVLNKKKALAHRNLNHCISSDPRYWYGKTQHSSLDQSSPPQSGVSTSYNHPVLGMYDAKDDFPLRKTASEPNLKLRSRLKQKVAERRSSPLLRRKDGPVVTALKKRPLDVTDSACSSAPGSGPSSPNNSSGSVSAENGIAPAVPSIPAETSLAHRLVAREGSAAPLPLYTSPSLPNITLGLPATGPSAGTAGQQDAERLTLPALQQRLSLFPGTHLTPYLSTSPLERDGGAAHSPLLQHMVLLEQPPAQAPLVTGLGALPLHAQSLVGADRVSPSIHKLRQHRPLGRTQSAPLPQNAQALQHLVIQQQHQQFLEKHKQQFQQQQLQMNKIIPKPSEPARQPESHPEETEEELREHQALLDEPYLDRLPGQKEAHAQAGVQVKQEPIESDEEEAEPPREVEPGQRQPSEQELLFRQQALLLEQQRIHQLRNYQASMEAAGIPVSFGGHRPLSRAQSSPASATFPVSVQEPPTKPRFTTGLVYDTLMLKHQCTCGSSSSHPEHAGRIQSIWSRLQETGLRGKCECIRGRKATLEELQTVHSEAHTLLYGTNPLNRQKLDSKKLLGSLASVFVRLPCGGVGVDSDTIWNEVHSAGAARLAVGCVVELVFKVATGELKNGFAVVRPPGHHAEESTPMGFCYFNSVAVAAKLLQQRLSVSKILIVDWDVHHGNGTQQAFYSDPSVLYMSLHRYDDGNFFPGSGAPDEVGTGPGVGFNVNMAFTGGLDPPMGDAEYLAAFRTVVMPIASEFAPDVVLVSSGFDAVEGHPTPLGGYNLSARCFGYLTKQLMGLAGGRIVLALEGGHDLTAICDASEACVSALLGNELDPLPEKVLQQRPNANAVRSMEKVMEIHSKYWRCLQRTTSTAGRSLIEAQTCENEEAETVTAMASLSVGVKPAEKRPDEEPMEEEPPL
Assay: Test 2: HDAC4 assay (fluorogenic substrate, 5 μM acetyl-Gly-Ala-Lys(ε-trifluoroacetyl)-AMC)
Format: biochemical
Settings: Test 2 (values without asterisk)
Observation Type: pIC50
Conceptually, pIC50 converts a concentration in mol/L into minus its log10.

The cases that follow already have their pIC50 on record.
{"Compound": "O=C(Nc1ccncc1)c1ccc(-c2noc(C(F)(F)F)n2)cc1", "pIC50": 7.27}
{"Compound": "CCCN(C)C[C@@H](C)NC(=O)c1ccc(-c2noc(C(F)(F)F)n2)cc1", "pIC50": 9.00}
{"Compound": "CCN(C[C@@H](C)NC(=O)c1ccc(-c2noc(C(F)(F)F)n2)cc1F)C(C)C", "pIC50": 8.08}

Can you share its pIC50? I mean this compound: CCCCN(C)C[C@@H](C)NC(=O)c1ccc(-c2noc(C(F)(F)F)n2)cc1 8.96

Can you share its pIC50? I mean this compound: O=C(NC1CCCC1)c1ccc(-c2noc(C(F)(F)F)n2)cc1 5.92

Can you share its pIC50? I mean this compound: O=C(Nc1ccnc(C(F)(F)F)c1)c1ccc(-c2noc(C(F)(F)F)n2)cc1 6.72

Can you share its pIC50? I mean this compound: CC(CO)NC(=O)c1ccc(-c2noc(C(F)(F)F)n2)cc1F (stereo not drawn) 6.30

Can you share its pIC50? I mean this compound: N#Cc1cc(NC(=O)c2ccc(-c3noc(C(F)(F)F)n3)cc2)ccn1 7.28

Can you share its pIC50? I mean this compound: CCN(C)C[C@@H](C)NC(=O)c1ccc(-c2noc(C(F)(F)F)n2)cc1 8.05

Can you share its pIC50? I mean this compound: O=C(NCC1CC1)c1ccc(-c2noc(C(F)(F)F)n2)cc1 6.21

Can you share its pIC50? I mean this compound: O=C(NCCCO)c1ccc(-c2noc(C(F)(F)F)n2)cc1 5.85

Can you share its pIC50? I mean this compound: COCCNC(=O)Cc1ccc(-c2noc(C(F)(F)F)n2)cc1 6.02

Can you share its pIC50? I mean this compound: C[C@H](CN1CCOCC1)NC(=O)c1ccc(-c2noc(C(F)(F)F)n2)cc1 6.52

Can you share its pIC50? I mean this compound: O=S(=O)(Nc1ccc(Cl)cc1)c1ccc(-c2noc(C(F)(F)F)n2)cc1 6.70

Can you share its pIC50? I mean this compound: CCC(CO)NC(=O)c1ccc(-c2noc(C(F)(F)F)n2)cc1 (stereo not drawn) 6.26

Can you share its pIC50? I mean this compound: CCN(CC)C[C@H](NC(=O)c1ccc(-c2noc(C(F)(F)F)n2)cc1F)C(C)C 8.00

Can you share its pIC50? I mean this compound: C[C@@H](CO)NC(=O)c1ccc(-c2noc(C(F)(F)F)n2)cc1 6.21

Can you share its pIC50? I mean this compound: CCCN(CC)C[C@@H](C)NC(=O)c1ccc(-c2noc(C(F)(F)F)n2)cc1F 8.80
